- measurement.target: delF508-CFTR (Homo sapiens, UniProt P13569, DEL508-508)
- Construct: endogenous in cells; host or cells: CFBE41o- human CF bronchial epithelial cells (delF508 homozygous)
- Sequence (P13569 with tags, fused parts or gaps DEL508-508): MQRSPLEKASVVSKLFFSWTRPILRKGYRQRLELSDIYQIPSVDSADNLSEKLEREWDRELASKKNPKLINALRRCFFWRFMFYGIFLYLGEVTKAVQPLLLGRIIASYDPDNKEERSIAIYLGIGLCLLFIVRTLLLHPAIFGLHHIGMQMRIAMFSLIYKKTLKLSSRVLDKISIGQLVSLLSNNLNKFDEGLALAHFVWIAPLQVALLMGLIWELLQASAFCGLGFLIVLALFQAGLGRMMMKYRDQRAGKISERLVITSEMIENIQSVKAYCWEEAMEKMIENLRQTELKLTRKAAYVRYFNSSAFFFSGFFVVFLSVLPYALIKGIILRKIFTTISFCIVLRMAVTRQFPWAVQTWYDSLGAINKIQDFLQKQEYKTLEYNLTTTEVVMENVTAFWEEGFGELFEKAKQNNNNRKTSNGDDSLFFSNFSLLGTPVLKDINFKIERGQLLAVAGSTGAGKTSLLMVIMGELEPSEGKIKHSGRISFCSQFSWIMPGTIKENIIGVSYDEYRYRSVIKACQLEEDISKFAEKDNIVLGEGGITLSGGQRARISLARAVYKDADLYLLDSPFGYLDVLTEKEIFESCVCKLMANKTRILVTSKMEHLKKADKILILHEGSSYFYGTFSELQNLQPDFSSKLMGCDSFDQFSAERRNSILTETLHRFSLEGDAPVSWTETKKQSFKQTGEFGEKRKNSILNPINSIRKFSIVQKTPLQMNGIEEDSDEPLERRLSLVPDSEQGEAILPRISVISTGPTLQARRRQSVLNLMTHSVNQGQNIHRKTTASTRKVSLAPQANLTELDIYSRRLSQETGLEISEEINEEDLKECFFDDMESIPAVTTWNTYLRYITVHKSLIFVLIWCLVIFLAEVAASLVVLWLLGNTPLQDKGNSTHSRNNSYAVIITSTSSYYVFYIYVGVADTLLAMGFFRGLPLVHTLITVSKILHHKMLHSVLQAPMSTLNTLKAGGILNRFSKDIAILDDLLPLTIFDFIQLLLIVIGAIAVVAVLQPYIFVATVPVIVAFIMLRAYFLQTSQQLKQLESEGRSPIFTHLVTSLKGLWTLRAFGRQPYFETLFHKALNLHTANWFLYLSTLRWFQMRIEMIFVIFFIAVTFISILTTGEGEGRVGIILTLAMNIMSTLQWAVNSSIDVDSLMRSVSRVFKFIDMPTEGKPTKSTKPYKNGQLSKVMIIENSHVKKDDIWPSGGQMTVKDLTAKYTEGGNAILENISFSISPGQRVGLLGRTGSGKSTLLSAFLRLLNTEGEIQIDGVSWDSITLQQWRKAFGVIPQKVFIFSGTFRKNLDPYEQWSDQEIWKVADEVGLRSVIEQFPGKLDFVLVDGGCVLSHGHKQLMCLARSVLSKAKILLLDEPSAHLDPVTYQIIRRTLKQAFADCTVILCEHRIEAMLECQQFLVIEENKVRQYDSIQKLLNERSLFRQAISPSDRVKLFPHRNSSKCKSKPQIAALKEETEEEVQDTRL
- measurement.notes: SPQ halide-sensitive fluorescence dye assay for rescue of halide efflux (8-point concentration-response)
- Type: cell-based
- test.settings: CFBE41o- cells, 48 h
experimental.endpoint: ΔSPQ (difference between maximum and minimum SPQ values) (RFU)

CCn1c(=O)c2c(nc3n(-c4ccc(C)cc4)c(C)c(C)n23)n(C)c1=O [Compound I-8]: 6975

A = C/C=C/Cn1c(=O)c2c(nc3n2CCN3Cc2ccco2)n(C)c1=O [Compound I-53]
B = C=CCn1c(=O)c2c(nc3n(-c4ccc(OC)cc4)c(C)c(C)n23)n(C)c1=O [Compound I-26]
Lowest ΔSPQ (difference between maximum and minimum SPQ values)? choose A or B To answer, give the label that identifies your chosen option.
B

----------
This listing pairs compounds with measured pEC50.
- measurement.target: delF508-CFTR (Homo sapiens, UniProt P13569, DEL508-508)
- Construct: endogenous in cells; host or cells: CFBE41o- human CF bronchial epithelial cells (delF508 homozygous)
- measurement.notes: SPQ halide-sensitive fluorescence dye assay for rescue of halide efflux (8-point concentration-response)
- Assay type: cell-based
- test.settings: CFBE41o- cells, 48 h; read-out: SPQ EC50
pEC50: −log10 of the molar value.

CCn1c(N2CCN(CCCc3ccccc3)CC2)nc2c1c(=O)[nH]c(=O)n2C [III-4]: < 4.52

Summary for this compound, C/C=C/Cn1c(=O)c2c(nc3n2C(C)C(C)=NN3CC)n(C)c1=O (stereo not drawn) [Compound V-12] : pEC50 is < 4.52

Summary for this compound, CCCn1c(=O)c2c(nc3n2CCCN3c2ccc(C)cc2)n(C)c1=O [IV-6] : pEC50 is < 4.52

----------
- measurement.target: delF508-CFTR (Homo sapiens, UniProt P13569, DEL508-508)
- Construct: endogenous in cells; host or cells: CFBE41o- human CF bronchial epithelial cells (delF508 homozygous)
- measurement.notes: SPQ halide-sensitive fluorescence dye assay for rescue of halide efflux (8-point concentration-response)
- Format: cell-based
- test.settings: CFBE41o- cells, 48 h
experimental.endpoint: ΔSPQ (difference between maximum and minimum SPQ values) (RFU)

CCn1c(=O)c2c(nc3n2CCCN3c2cccc(OC)c2)n(C)c1=O: 15138
C/C=C/Cn1c(=O)c2c(nc3oc(C(C)(C)C)cn32)n(C)c1=O: 7993
CCCn1c(=O)c2c(nc3n(-c4ccccc4C)c(C)cn23)n(C)c1=O: 8875
CCc1ccc(-n2c(C)cn3c4c(=O)n(CCCO)c(=O)n(C)c4nc23)cc1: 14593
CCOCCn1c(=O)c2c(nc3n2CCN3c2cc(C)ccc2C)n(C)c1=O: 12347

I = Cc1cn2c3c(=O)n(C)c(=O)n(C)c3nc2n1-c1cccc(O)c1
II = CCCn1c(=O)c2c(nc3n2CCCN3Cc2ccccc2)n(C)c1=O
III = C/C=C/Cn1c(=O)c2c(nc3n2C(C)C(C)=NN3CC)n(C)c1=O (centres unmarked)
Put the compounds in ascending order of ΔSPQ (difference between maximum and minimum SPQ values). # output: labels, in the requested order
I, III, II
(I: 4000 RFU, III: 6365 RFU, II: 12224 RFU)

A = Cc1ccc(N2CC(C)Cn3c2nc2c3c(=O)[nH]c(=O)n2C)cc1 (centres unmarked)
B = CCCn1c(=O)c2c(nc3n2CCCN3c2ccc(C)cc2)n(C)c1=O
Pick the one with the larger ΔSPQ (difference between maximum and minimum SPQ values): A vs B To answer, give the label that identifies your chosen option.
B

----------
- measurement.target: delF508-CFTR (Homo sapiens, UniProt P13569, DEL508-508)
- Construct: endogenous in cells; host or cells: CFBE41o- human CF bronchial epithelial cells (delF508 homozygous)
- measurement.notes: SPQ halide-sensitive fluorescence dye assay for rescue of halide efflux (8-point concentration-response)
- Type: cell-based
- test.settings: CFBE41o- cells, 48 h
experimental.endpoint: ΔSPQ (difference between maximum and minimum SPQ values) (RFU)

CCCn1c(=O)c2c(nc3n(-c4ccccc4O)c(C)c(C)n23)n(C)c1=O: 5235
CCn1c(N2CCN(CCCc3ccccc3)CC2)nc2c1c(=O)[nH]c(=O)n2C: 5256
CC1=NN(C)c2nc3c(c(=O)n(Cc4cccc(C)c4)c(=O)n3C)n2C1: 5149
CC1(C)Cc2c(sc3c2c(=O)n(CCO)c(=O)n3Cc2ccccc2)CO1: 8345

Cited source for all entries: patent US9546176B2
